Tested on: KM12 colon
Assay Name: NCI-60 one-dose screen, 48 h (100 = growth as untreated, 0 = no growth, -100 = all killed)
Condition Description: 10 µM unless noted
This is part of a sample that, as a whole, favours compounds with a hit. Of some 83,000 tested, about 20% had one in any assay.
growth values, listed per item

{"Compound": "Cn1cc(NC(=O)c2cc(NC(=O)c3ccc(C#Cc4ccccc4)cc3)cn2C)cc1C(=O)NCCCN1CCOCC1", "Uom": "%", "growth": 3.14}
{"Compound": "N#Cc1c(-c2ccc(Cl)cc2)nc2n[nH]c(-c3ccc(Cl)cc3)c2c1-c1cccs1", "Uom": "%", "growth": 42}
{"Compound": "C=C1CC[C@@H]2[C@]3(C)COC(c4cn(-c5ccccc5)nc4-c4ccccc4)O[C@@H]3CC[C@@]2(C)[C@@H]1C/C=C1/C(=O)OC[C@H]1O (some centres undefined)", "Uom": "%", "growth": -56.2}
{"Compound": "Clc1cccc(-c2ccc(OCCCN3CCN(c4ccncc4)CC3)cc2)c1", "Uom": "%", "growth": -43.8}

---

Tested on: OVCAR-8 ovarian
Assay Name: NCI-60 one-dose screen, 48 h
Condition Description: 10 µM unless noted
Compounds without any hit were thinned out: in the full panel of roughly 83,000, 20% have a hit. Calls of active or inactive are those of the source. How the source made its calls: active means growth percent below 10; inactive means the rest.
Outcome codes: 1.0 for active, 0.0 for inactive

{"Compound": "COCOc1cc2c(=O)c(C)c(C(=O)N[C@@H](Cc3ccccc3)C(O)C(=O)NCc3ccccc3)oc2cc1OC (some centres undefined)", "Tgt": "OVCAR-8 ovarian", "Group Label": 1.0}
{"Compound": "Cn1cc(-c2cc(N)n3nc(-c4cn(C)c5ccccc45)cc3n2)c2cc(Br)ccc21", "Tgt": "OVCAR-8 ovarian", "Group Label": 1.0}
{"Compound": "COc1cccc(-c2nc(Nc3ccc(S(N)(=O)=O)cc3)c3ccccc3n2)c1", "Tgt": "OVCAR-8 ovarian", "Group Label": 0.0}
{"Compound": "C#CCOc1cc(N(CC)CC)ccc1C(C(=O)NC(C)(C)C)N(C(=O)C1CCc2cc(F)ccc2O1)c1ccc(F)c(Cl)c1 (centres undefined)", "Tgt": "OVCAR-8 ovarian", "Group Label": 0.0}

---

Test system: LOX IMVI melanoma
Assay Name: NCI-60 one-dose screen, 48 h (100 = growth as untreated, 0 = no growth, -100 = all killed)
Condition Description: 10 µM
Protocol: Growth inhibition of the LOX IMVI human tumor cell line is measured as a screen for anti-cancer activity. Cells are grown in 96 well plates and exposed to the test compound for 48 hours. Compounds are tested at a single concentration, which is 10^-5 M for most compounds. The reported endpoint is percent growth (GI% or GIPRCNT), where numbers from 0 - 100% represent growth inhibition, and numbers from -100% - 0 represent cell death. For example, a value of 40 represents 60% growth inhibition. […]
This is part of a sample that, as a whole, favours compounds with a hit. Of some 83,000 tested, about 20% had one in any assay.
growth values, listed per item
Parameter Measured: growth (%)

{"Molecule": "COc1cc2oc(-c3cccc(NC(=O)[C@H](CC(N)=O)NC(=O)OC(C)(C)C)c3)cc(=O)c2c(OC)c1OC", "Parameter Measured": "growth", "Reported": 81.5}
{"Molecule": "CCCSc1nc(NCCc2c[nH]c3ccccc23)c(C#N)c(-c2ccc(OC)cc2)n1", "Parameter Measured": "growth", "Reported": 37.1}
{"Molecule": "Cn1cc(-c2cc3nc(-c4cn(C)c5ncc(Br)cc45)cc(N)n3n2)c2cc(Cl)ccc21", "Parameter Measured": "growth", "Reported": -95.1}
{"Molecule": "Cn1cc(-c2nc(N)nnc2-c2c[nH]c3ccc(Br)cc23)c2cc(Br)cnc21", "Parameter Measured": "growth", "Reported": 17.3}
{"Molecule": "COc1ccc(C(=O)/C=C/c2cccc(Cl)c2)cc1S(N)(=O)=O", "Parameter Measured": "growth", "Reported": -87.4}
{"Molecule": "CN(C)CCOc1ccc(C(=O)C2[C@H](c3ccc(Cl)cc3)[C@@H](c3ccccc3)NC23C(=O)Nc2ccccc23)cc1 (stereo not given in full)", "Parameter Measured": "growth", "Reported": -94.3}
{"Molecule": "COc1ccc(-c2ccc(SCC(=O)NCCc3ccc(S(N)(=O)=O)cc3)nn2)cc1", "Parameter Measured": "growth", "Reported": 89.1}
{"Molecule": "CCOC(=O)C(N=Nc1ccc(S(=O)(=O)N=C(N)N)cc1)C(C)=O (stereo not given)", "Parameter Measured": "growth", "Reported": 109}
{"Molecule": "O=C(NN1C(=O)/C(=C/C=C/c2ccc([N+](=O)[O-])o2)SC1=S)c1ccccc1O", "Parameter Measured": "growth", "Reported": -91.6}
{"Molecule": "COc1c(F)ccc(C(=O)Nc2ccc3nc(NC(=O)C4CCCN(S(=O)(=O)c5cccc(C(F)(F)F)c5)C4)sc3c2)c1F (stereo not given)", "Parameter Measured": "growth", "Reported": 86.5}
{"Molecule": "O=C1C(=Nc2ccc(F)c(Cl)c2)c2cccc3cccc1c23", "Parameter Measured": "growth", "Reported": 46.9}
{"Molecule": "O=C(c1ccc(OCCN2CCOCC2)cc1)C1[C@H](c2ccc(Cl)cc2)[C@@H](c2ccccc2)NC12C(=O)Nc1ccc(Cl)cc12 (stereo not given in full)", "Parameter Measured": "growth", "Reported": -45.5}
{"Molecule": "CCCCCCCS(=O)(=O)N1CCCC(C(=O)Nc2nc3ccc(NC(=O)c4ccc(F)c(OC)c4F)cc3s2)C1 (stereo not given)", "Parameter Measured": "growth", "Reported": 34}
{"Molecule": "CC1(C)CC[C@]2(C(=O)O)CC[C@]3(C)C(=CCC4[C@@]5(C)C[C@@H](O)[C@@H]6OC(c7ccccc7Br)OC[C@@]6(C)C5CC[C@]43C)C2C1 (stereo not given in full)", "Parameter Measured": "growth", "Reported": 13.5}
{"Molecule": "COc1ccc(C(=O)/C=C/c2ccc(Cl)c(Cl)c2)cc1S(N)(=O)=O", "Parameter Measured": "growth", "Reported": -69}
{"Molecule": "CCCSc1nc(NCCc2c[nH]c3ccccc23)c(C#N)c(-c2ccc(F)cc2)n1", "Parameter Measured": "growth", "Reported": 21.1}
{"Molecule": "CCCSc1nc(NCCc2c[nH]c3ccccc23)c(C#N)c(-c2ccccc2)n1", "Parameter Measured": "growth", "Reported": 53.3}
{"Molecule": "CC12CC[C@@H]3[C@]4(C)COC(c5c(F)cccc5F)O[C@@H]4CC[C@@]3(C)[C@@H]1CC(C1=CCOC1=O)O2 (stereo not given in full)", "Parameter Measured": "growth", "Reported": 73.1}
{"Molecule": "Cn1cc(-c2cc(N)n3nc(-c4cn(C)c5ccccc45)cc3n2)c2cc(Cl)ccc21", "Parameter Measured": "growth", "Reported": -86.5}
{"Molecule": "COc1ccc(C(=O)/C=C/c2ccccc2Br)cc1S(N)(=O)=O", "Parameter Measured": "growth", "Reported": -89.9}
{"Molecule": "Cc1ccc(NC(=O)[C@]23CCC(C)(C)CC2C2=CCC4[C@@]5(C)C[C@@H](O)[C@H](O)[C@@](C)(CO)C5CC[C@@]4(C)[C@]2(C)CC3)cc1 (stereo not given in full)", "Parameter Measured": "growth", "Reported": -6.45}
{"Molecule": "CCN1CCN(Cc2ccc(C(=O)Nc3cccc(C#Cc4cccc5[nH]nc(N)c45)c3)cc2C(F)(F)F)CC1", "Parameter Measured": "growth", "Reported": -92.6}
{"Molecule": "CNS(=O)(=O)c1ccc(Nc2ccc(C(F)(F)F)cc2)c(-c2cn(C)cn2)c1", "Parameter Measured": "growth", "Reported": 43.1}
{"Molecule": "COc1ccc(NC(=O)Cn2c(/C=C/c3cccc([N+](=O)[O-])c3)nc3ccccc3c2=O)cc1", "Parameter Measured": "growth", "Reported": 50.8}
{"Molecule": "COc1cc2c(c(OC)c1OC)C(=O)CC(c1cccc(NC(=O)c3cc(NC(=O)[C@H](C)N)ccc3Cl)c1)O2 (stereo not given in full)", "Parameter Measured": "growth", "Reported": 15.7}
{"Molecule": "CCCCCCCCc1ccc(S(=O)(=O)Nc2ccc(CC)cc2C(=O)O)cc1", "Parameter Measured": "growth", "Reported": 99.9}
{"Molecule": "Cc1ccc(S(=O)(=O)c2nc(S(=O)(=O)c3ccc(C)cc3)c(Cl)s2)cc1", "Parameter Measured": "growth", "Reported": -93}
{"Molecule": "O=C(Nc1ccccc1)N1CCN(c2cc(-c3cn(-c4ccccc4)nc3-c3cccc(O)c3)ccn2)CC1", "Parameter Measured": "growth", "Reported": 69.1}
{"Molecule": "Cc1ccc(C(=O)NN2C(=O)/C(=C/C=C/c3ccc([N+](=O)[O-])o3)SC2=S)cc1", "Parameter Measured": "growth", "Reported": -90.9}
{"Molecule": "CC(C)Sc1nc(NCCc2c[nH]c3ccccc23)c(C#N)c(-c2ccc(F)cc2)n1", "Parameter Measured": "growth", "Reported": -17.3}
{"Molecule": "O=C(Cn1c(/C=C/c2ccccc2)nc2ccccc2c1=O)Nc1ccc(Cl)cc1", "Parameter Measured": "growth", "Reported": 25.4}
{"Molecule": "COc1c(F)ccc(C(=O)Nc2ccc3nc(NC(=O)C4CCCN(S(=O)(=O)c5cccc(Br)c5)C4)sc3c2)c1F (stereo not given)", "Parameter Measured": "growth", "Reported": 85}
{"Molecule": "Nc1n[nH]c2cccc(C#Cc3cccc(NC(=O)c4cccc(Cl)c4)c3)c12", "Parameter Measured": "growth", "Reported": 17.7}
{"Molecule": "COc1c(F)ccc(C(=O)Nc2ccc3nc(NC(=O)C4CCCN(S(=O)(=O)c5ccc(Br)c(F)c5)C4)sc3c2)c1F (stereo not given)", "Parameter Measured": "growth", "Reported": 78.9}
{"Molecule": "Cn1cc(-c2cc3nc(-c4c[nH]c5ccc(Br)cc45)cc(N)n3n2)c2ccccc21", "Parameter Measured": "growth", "Reported": -85.1}

Entry source: PubChem BioAssay (NCI)
